Source of measurements: patent US20240246964A1

molecular target: human PD-L1 (Homo sapiens (Human)); assay: T cell activation luciferase reporter cell culture system (T Cell Activation Assay); assay type: cell-based; conditions: luciferase reporter assay; PD-L1 aAPC/CHO-K1 cells with PD-1 effector Jurkat T cells
Sequence (Q9NZQ7 19-290): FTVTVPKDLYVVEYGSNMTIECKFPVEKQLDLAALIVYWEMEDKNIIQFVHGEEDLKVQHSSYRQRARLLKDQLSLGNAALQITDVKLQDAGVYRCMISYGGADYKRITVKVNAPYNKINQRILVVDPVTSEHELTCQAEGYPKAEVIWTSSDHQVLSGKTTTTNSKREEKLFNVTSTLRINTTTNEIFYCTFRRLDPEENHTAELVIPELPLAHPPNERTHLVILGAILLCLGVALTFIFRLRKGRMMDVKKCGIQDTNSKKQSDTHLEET
measuredEndpoint: EC50 (nM)
Give just the number in nM; leave the unit off.

Q. Reported EC50 for COc1cc(-c2nccc(-c3cccc(-c4ccc(CN(C)C)c(OC)n4)c3Cl)c2Cl)ccc1CN(C)C : what is it?
A. 84.3

Q. Reported EC50 for COc1nc(-c2cccc(-c3ccnc(-c4cc(OC)c5nc(CN6CC(C)(O)C6)cn5c4)c3Cl)c2Cl)ccc1CN1CC(C)(O)C1 : what is it?
A. 174

Q. Reported EC50 for COc1nc(-c2cccc(-c3ccnc(-c4ccc5c(CNC6CCC(F)(F)CC6)cn(C)c5c4)c3Cl)c2Cl)ccc1CNC[C@@H]1CCC(=O)N1 : what is it?
A. 184

Q. Reported EC50 for COc1cc(-c2nccc(-c3cccc(-c4ccc5c(CN(C)C6CCN(C(C)=O)CC6)cn(C)c5n4)c3Cl)c2Cl)ccc1CN1CC2(CNC(=O)C2)C1 : what is it?
A. 49.7

Q. Reported EC50 for COc1cc(-c2nccc(-c3cccc(-c4ccc(CN(C)C5CCN(C(C)=O)CC5)c(OC)n4)c3Cl)c2Cl)ccc1CNC1CCN(C(C)=O)CC1 : what is it?
A. 49.1

Q. Reported EC50 for COc1cc(-c2nccc(-c3cccc(-c4ccc(CNC5CC6(COC6)C5)c(OC)n4)c3Cl)c2Cl)ccc1CNC1CC2(COC2)C1 (stereo not drawn) : what is it?
A. 19.9

====

biological target: PD-L1 His protein / PD-1 Fc protein (Homo sapiens (Human)); experiment: HTRF Assay (PD-1/PD-L1 interaction); type: binding; conditions: PD-L1 His 6 nM, PD-1 Fc 6 nM
pIC50: −log10 of the molar value.
The label depends only on pIC50: Fulfilled if it is at least 9, Not fulfilled if it is smaller.

Q. Form field: pIC50 at least 9? Entry: COc1nc(-c2ccnc(-c3cccc4c3CC[C@@H]4Nc3nc(OC)c(CNC[C@@H]4CCC(=O)N4)cc3C(F)(F)F)c2Cl)ccc1CNC[C@@H]1CCC(=O)N1 [Compound 223]
A. Not fulfilled

Q. Form field: pIC50 at least 9? Entry: COc1cc(-c2nccc(-c3cccc(-c4ccc(C5=NCCN5)c(OC)n4)c3Cl)c2Cl)ccc1CNC[C@@H](O)CC(=O)OC(C)C [Compound 209]
A. Not fulfilled

Q. Form field: pIC50 at least 9? Entry: CNCc1cn(C)c2nc(-c3cccc(-c4ccnc(-c5ccc(CNC[C@@H]6CCC(=O)N6)c(OC)c5)c4Cl)c3Cl)ccc12 [Compound 94]
A. Fulfilled

====

target: human PD-L1 (Homo sapiens (Human)); assay: T cell activation luciferase reporter cell culture system (T Cell Activation Assay); format: cell-based; conditions: luciferase reporter assay; PD-L1 aAPC/CHO-K1 cells with PD-1 effector Jurkat T cells
measuredEndpoint: EC50 (nM)
Give just the number in nM; leave the unit off.

Q. Reported EC50 for COc1cc(-c2ccnc(-c3cccc(-c4ccc(CNC[C@@H]5CCC(=O)N5)c(OC)n4)c3Cl)c2Cl)ccc1CNC[C@@H]1CCC(=O)N1 : what is it?
A. 16.7

Q. Reported EC50 for COc1cc(-c2nccc(-c3cccc(-c4ccc(CNC5CCN(C(=O)c6ccccc6)CC5)c(OC)n4)c3Cl)c2Cl)ccc1CNC1CCN(C(=O)c2ccccc2)CC1 : what is it?
A. 75.5

Q. Reported EC50 for COc1nc(-c2cccc(-c3ccnc(-c4cc(OC)c5nc(CN[C@H]6CC[C@H](O)CC6)cn5c4)c3Cl)c2Cl)ccc1CN[C@H]1CC[C@H](O)CC1 : what is it?
A. 270

Q. Reported EC50 for COc1cc(-c2ncnc(-c3cccc(-c4ccc(CN5CC6(CC(O)C6)C5)c(OC)n4)c3Cl)c2Cl)ccc1CN1CC2(CC(O)C2)C1 : what is it?
A. 187

Q. Reported EC50 for COc1cc(-c2nccc(-c3cccc(-c4ccc5c(CNC6CCC(F)(F)CC6)cn(C)c5n4)c3Cl)c2Cl)ccc1CNC[C@@H]1CCC(=O)N1 : what is it?
A. 230

Q. Reported EC50 for COc1cc(-c2nccc(-c3cccc(-c4ccc(CNC5CCN(C(C)=O)CC5)c(OC)n4)c3Cl)c2Cl)ccc1CN1CC2(CC(C(=O)O)C2)C1 : what is it?
A. 104

Q. Reported EC50 for COc1cc(-c2nccc(-c3cccc(-c4ccc(CNC5CCN(C(C)=O)CC5)c(OC)n4)c3F)c2Cl)ccc1CNC1CCN(C(C)=O)CC1 : what is it?
A. 121

Q. Reported EC50 for COc1cc(-c2nccc(-c3cccc(-c4ccc(CNC[C@@H]5CCC(=O)N5)c(OC)n4)c3Cl)c2Cl)cc2c1CN(CC(=O)O)CC2 : what is it?
A. 77.3

Q. Reported EC50 for COc1nc(-c2cncc(-c3cccc(NC(=O)c4cn(C)c(=O)n(C)c4=O)c3Cl)c2Cl)ccc1CN1CC2(CNC(=O)C2)C1 : what is it?
A. 818

Q. Reported EC50 for COc1cc(-c2nccc(-c3cccc(-c4ccc(CN5CC6(CNC(=O)C6)C5)c(OC)n4)c3Cl)c2Cl)ccc1CN1CCC(NC(C)=O)CC1 : what is it?
A. 16.4

Q. Reported EC50 for COc1nc(-c2cccc(-c3ccnc(-c4cc(OC)c5nc(CN6CC7(C6)CN(C(C)=O)C7)cn5c4)c3Cl)c2Cl)ccc1CNC[C@@H]1CCC(=O)N1 : what is it?
A. 38.3

Q. Reported EC50 for COc1cc(-c2ncnc(-c3cccc(-c4ccc(CN5CC6(CNC(=O)C6)C5)c(OC)n4)c3Cl)c2C)ccc1CN1CC2(CNC(=O)C2)C1 : what is it?
A. 1060

====

target: human PD-L1 (Homo sapiens (Human)); test: T cell activation luciferase reporter cell culture system (T Cell Activation Assay); type: cell-based; conditions: luciferase reporter assay; PD-L1 aAPC/CHO-K1 cells with PD-1 effector Jurkat T cells
measuredEndpoint: EC50 (nM)
Give just the number in nM; leave the unit off.

Q. Reported EC50 for COc1cc(-c2nccc(-c3cccc(NC(=O)c4ccc(CNCCO)cn4)c3Cl)c2Cl)ccc1CNC1CCN(C(C)=O)CC1 [Example 733] : what is it?
A. 28.6

Q. Reported EC50 for COc1cc(-c2nccc(-c3cccc(-c4ccc(CNC5CCN(C(=O)C(C)C)CC5)c(OC)n4)c3Cl)c2Cl)ccc1CNC1CCN(C(=O)C(C)C)CC1 [Example 346] : what is it?
A. 70.5

Q. Reported EC50 for COc1cc(-c2nccc(-c3cccc(-c4ccc(CNC[C@@H]5CCC(=O)N5)c(OC)n4)c3Cl)c2Cl)ccc1CNC[C@@H]1CCO1 [Cmpd 122] : what is it?
A. 55.7

====

biological target: PD-L1 His protein / PD-1 Fc protein (Homo sapiens (Human), UniProt Q9NZQ7); assay: HTRF Assay (PD-1/PD-L1 interaction); format: binding; conditions: PD-L1 His 6 nM, PD-1 Fc 6 nM
Sequence (Q9NZQ7 19-238): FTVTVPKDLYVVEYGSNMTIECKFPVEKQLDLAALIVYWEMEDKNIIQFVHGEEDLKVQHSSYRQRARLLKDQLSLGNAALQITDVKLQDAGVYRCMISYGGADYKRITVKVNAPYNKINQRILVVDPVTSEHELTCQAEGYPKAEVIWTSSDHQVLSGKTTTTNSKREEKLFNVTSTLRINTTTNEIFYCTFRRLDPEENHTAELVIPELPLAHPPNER
measuredEndpoint: IC50 (nM)
Give just the number in nM; leave the unit off.

Q. Reported IC50 for COc1cc(-c2nccc(-c3cccc(-c4ccc(CNC5CCN(C(C)=O)CC5)c(OC)n4)c3Cl)c2Cl)ccc1CN1CC[C@H](C(=O)O)C1 : what is it?
A. 0.19

Q. Reported IC50 for COc1cc(-c2nccc(-c3cccc(-c4ccc5c(CNCCO)cn(C)c5n4)c3Cl)c2Cl)ccc1CNC1CCN(C(C)=O)CC1 : what is it?
A. 1.61

Q. Reported IC50 for COc1cc(-c2nccc(-c3cccc(-c4ccc(CN5CCC(C(C)=O)CC5)c(OC)n4)c3Cl)c2Cl)ccc1CN1CCC(C(C)=O)CC1 : what is it?
A. 6.7

Q. Reported IC50 for COc1cc(-c2nccc(-c3cccc(-c4ccc(CNC5CN(C(C)=O)C5)c(OC)n4)c3Cl)c2Cl)ccc1CNC1CN(C(C)=O)C1 : what is it?
A. 0.87

Q. Reported IC50 for COc1cc(-c2cccc(-c3ccnc(-c4cnc(CN5CC6(CNC(=O)C6)C5)c(OC)c4)c3Cl)c2Cl)cnc1CN1CC2(CNC(=O)C2)C1 : what is it?
A. 0.62

Q. Reported IC50 for COc1nc(-c2cccc(-c3ccnc(-c4cc(OC)c5nc(CNCC(C)(C)O)nn5c4)c3Cl)c2Cl)ccc1CNC1CCN(C(C)=O)CC1 : what is it?
A. 0.54

Q. Reported IC50 for COc1nc(-c2cccc(-c3ccnc(-c4ccc5c(CNC[C@H](C)O)cn(C)c5c4)c3Cl)c2Cl)ccc1CNC[C@@H]1CCC(=O)N1 : what is it?
A. 1.1

Q. Reported IC50 for COc1nc(-c2cccc(-c3ccnc(-c4cc(OC)c5nc(CNC[C@@H]6CCC(=O)N6)cn5c4)c3Cl)c2Cl)ccc1CNC[C@@H]1CCC(=O)N1 : what is it?
A. 1.8

Q. Reported IC50 for COc1cc(-c2nccc(-c3cccc(-c4ccc(CNC5CCN(c6ccncc6)CC5)c(OC)n4)c3Cl)c2Cl)ccc1CNC1CCN(c2ccncc2)CC1 : what is it?
A. 3.59

Q. Reported IC50 for COc1nc(-c2cccc(-c3ccnc(-c4ccc5c(c4)CNC5)c3Cl)c2Cl)ccc1CNC1CCN(C(C)=O)CC1 : what is it?
A. 0.78

Q. Reported IC50 for CNCc1ccc(-c2cccc(-c3ccnc(-c4ccc5c(c4)CNC5)c3Cl)c2Cl)nc1OC : what is it?
A. 1.34

Q. Reported IC50 for COc1cc(-c2nccc(-c3cccc(-c4ccc(CN5CC6(CNC(=O)C6)C5)c(OC)n4)c3Cl)c2Cl)cc2c1CN(CC(O)CF)CC2 (stereo not shown) : what is it?
A. 3.3

Q. Reported IC50 for COc1nc(-c2cccc(-c3nccc(-c4ccc(CNC5CCN(C(C)=O)CC5)c(OC)n4)c3Cl)c2Cl)ccc1CN1CC2(CNC(=O)C2)C1 : what is it?
A. 0.17
